Tested on: hLiMTs
test: Combined HCI (HCS) and cellular ATP 3D assay in hLiMTs
run parameters: hLiMTs; all endpoints; Cmax min used
measurement type: hLiMTs Cmax min All

Example compounds with recorded hLiMTs Cmax min All:
compound: CN1CCN(C2=Nc3cc(Cl)ccc3Nc3ccccc32)CC1 [clozapine]
assayed target: hLiMTs
hLiMTs Cmax min All: +ve
--
compound: CN(C)C(=N)N=C(N)N [metformin]
assayed target: hLiMTs
hLiMTs Cmax min All: +ve
--
compound: O=c1[nH]c(=O)n([C@@H]2O[C@H](CO)[C@@H](O)[C@@H]2F)cc1I [fialuridine]
assayed target: hLiMTs
hLiMTs Cmax min All: +ve
--
compound: CN(C)CCCN1c2ccccc2Sc2ccc(Cl)cc21 [chlorpromazine, reference compound]
assayed target: hLiMTs
hLiMTs Cmax min All: +ve
--
compound: CCCC(CCC)C(=O)O [valproic acid]
assayed target: hLiMTs
hLiMTs Cmax min All: +ve
--
compound: O=C1CC2(CCCC2)CC(=O)N1CCCCN1CCN(c2ncccn2)CC1 [buspirone, reference compound]
assayed target: hLiMTs
hLiMTs Cmax min All: -ve

We now examine a further compound.
Task item: Any idea what hLiMTs Cmax min All was measured for [H]/N=C(/N)N[C@H]1[C@H](O)[C@@H](O)[C@H](O[C@@H]2O[C@@H](C)[C@](O)(C=O)[C@H]2O[C@@H]2O[C@@H](CO)[C@H](O)[C@@H](O)[C@@H]2NC)[C@@H](N/C(N)=N\[H])[C@@H]1O [streptomycin, reference compound] ?
Reply: -ve
